tested on: OVCAR-4 ovarian; experiment: NCI-60 one-dose screen, 48 h; conditions: 10 µM unless noted
About 83,000 compounds went through this panel and 20% of them were active in at least one assay; those are over-represented in the sample as a whole. Active and inactive are the calls of the source. Rule for the calls: active = growth percent below 10; inactive = the rest.
Classes used: t for active, f for inactive

>  <compound>
CS(=O)(=O)Nc1cc(-c2ccc3ncnc(Nc4ccc(F)c(Cl)c4)c3c2)ccc1Cl

>  <testedSystem>
OVCAR-4 ovarian

>  <classAssignment>
f

$$$$
>  <compound>
O=C(Nc1cccnc1Nc1ccc(Cl)cc1)c1cn(Cc2cccc(Oc3ccccc3)c2)nn1

>  <testedSystem>
OVCAR-4 ovarian

>  <classAssignment>
f

$$$$
>  <compound>
COC(=O)[C@]1(C)CCC[C@]2(C)[C@H]3C[C@@H]4[C@H]5[C@@H]6CC/C(=N\OCC/C(N)=N/O)[C@H]5[C@@]3(CC[C@H]21)CC4(C(C)C)O6

>  <testedSystem>
OVCAR-4 ovarian

>  <classAssignment>
f

$$$$
>  <compound>
CCN(CC)CCOc1ccc2ccc(=O)oc2c1

>  <testedSystem>
OVCAR-4 ovarian

>  <classAssignment>
f

$$$$
>  <compound>
O=C1CCCC1[n+]1ccccc1 (stereo not drawn)

>  <testedSystem>
OVCAR-4 ovarian

>  <classAssignment>
f

$$$$
>  <compound>
O=C(/C=C/C12c3ccccc3C(c3ccccc31)C1C(=O)NC(=O)C12)c1ccco1 (stereo not drawn)

>  <testedSystem>
OVCAR-4 ovarian

>  <classAssignment>
f

$$$$
>  <compound>
COc1cccc(-c2cn3nc(-c4cn(C)c5ccccc45)sc3n2)c1

>  <testedSystem>
OVCAR-4 ovarian

>  <classAssignment>
f

$$$$
>  <compound>
O=C(/C=C/c1ccco1)Nc1ncc(Cc2cc(Cl)ccc2Cl)s1

>  <testedSystem>
OVCAR-4 ovarian

>  <classAssignment>
f

$$$$
>  <compound>
COc1ccc(CN2C(=O)OC(C)(COC(C)=O)C2=O)cc1 (stereo not drawn)

>  <testedSystem>
OVCAR-4 ovarian

>  <classAssignment>
f

$$$$
>  <compound>
Nc1nc(N(Cc2ccccc2)c2ccccc2)c2cn[nH]c2n1

>  <testedSystem>
OVCAR-4 ovarian

>  <classAssignment>
f

$$$$
>  <compound>
CC(=O)O[C@H]1CC[C@]2(C)[C@H]3CC=C4[C@@H]5CC(C)(C)CC[C@]5(C(=O)N5CCN(CCC#N)CC5)CC[C@@]4(C)[C@]3(C)CC[C@H]2C1(C)C

>  <testedSystem>
OVCAR-4 ovarian

>  <classAssignment>
t

$$$$
>  <compound>
C=C1C(=O)O[C@H]2[C@H]1CC/C(COC(=O)/C=C\C(=O)NCc1ccc(Cn3c(=O)sn(CCCCl)c3=O)cc1)=C\CC[C@@]1(C)O[C@@H]21

>  <testedSystem>
OVCAR-4 ovarian

>  <classAssignment>
f

$$$$
>  <compound>
CCCCCc1ccc(S(=O)(=O)Nc2ccc3nc(N)oc3c2)cc1

>  <testedSystem>
OVCAR-4 ovarian

>  <classAssignment>
f

$$$$
>  <compound>
O=C(C[C@]1(O)C(=O)Nc2ccc(Br)cc21)c1ccco1

>  <testedSystem>
OVCAR-4 ovarian

>  <classAssignment>
f

$$$$
>  <compound>
COC1/C=C/OC2(C)Oc3c(C)c(O)c4c(O)c(c(/C=N/N(c5ccccc5)c5ccccc5)c(O)c4c3C2=O)NC(=O)C(C)=C/C=C/C(C)C(O)C(C)C(O)C(C)C(OC(C)=O)C1C (stereo not drawn)

>  <testedSystem>
OVCAR-4 ovarian

>  <classAssignment>
f

$$$$
>  <compound>
CCOC(=O)c1ccc[nH]1

>  <testedSystem>
OVCAR-4 ovarian

>  <classAssignment>
f

$$$$
>  <compound>
COc1nc(/C=C\Nc2ccc3c(c2)OCCOCCOCCOCCO3)nc(OC)n1

>  <testedSystem>
OVCAR-4 ovarian

>  <classAssignment>
f

$$$$
>  <compound>
CCN(CC)c1ccc(-c2cc(-c3cc(OC)c(OC)c(OC)c3)nc(N3CCC(O)CC3)c2C#N)cc1

>  <testedSystem>
OVCAR-4 ovarian

>  <classAssignment>
f

$$$$
>  <compound>
O=CCCCOCc1ccccc1

>  <testedSystem>
OVCAR-4 ovarian

>  <classAssignment>
f

$$$$
>  <compound>
ClCCn1cnc2c(SCc3ccccc3)ncnc21

>  <testedSystem>
OVCAR-4 ovarian

>  <classAssignment>
f

$$$$
>  <compound>
Nc1ccc(Br)cc1C(F)(F)F

>  <testedSystem>
OVCAR-4 ovarian

>  <classAssignment>
f

$$$$
>  <compound>
O=S(=O)(Nc1cc(Sc2nc3ccccc3s2)c(O)c2ccccc12)c1ccc2ccccc2c1

>  <testedSystem>
OVCAR-4 ovarian

>  <classAssignment>
f

$$$$
>  <compound>
C=C1C(=O)O[C@@H]2C3C(=C(C)CC[C@@H]12)CC1O[C@]13C (stereo partly drawn)

>  <testedSystem>
OVCAR-4 ovarian

>  <classAssignment>
f

$$$$
>  <compound>
O=C(/C=C/c1ccccc1)c1ccc(-n2cc(CN3CCN(c4cc5c(cc4F)c(=O)c(C(=O)O)cn5C4CC4)CC3)nn2)cc1

>  <testedSystem>
OVCAR-4 ovarian

>  <classAssignment>
f

$$$$
>  <compound>
COc1ccc(C2CC(n3ccnc3)c3cc(OC)c(OC)c(OC)c32)cc1O (stereo not drawn)

>  <testedSystem>
OVCAR-4 ovarian

>  <classAssignment>
f

$$$$
>  <compound>
COC(=O)c1c2c(c(C)[n+]([O-])c1C)C(=O)C(NCc1ccccc1)=CC2=O

>  <testedSystem>
OVCAR-4 ovarian

>  <classAssignment>
t

$$$$
>  <compound>
COC(=O)Cn1c2c(c3c(OC)cccc31)C(=O)c1ccccc1-2

>  <testedSystem>
OVCAR-4 ovarian

>  <classAssignment>
f

$$$$
>  <compound>
N#Cc1c(-c2ccccc2)nc2c(c(-c3ccc(Cl)cc3)nn2-c2ccccc2)c1-c1ccc([N+](=O)[O-])cc1

>  <testedSystem>
OVCAR-4 ovarian

>  <classAssignment>
f

$$$$
>  <compound>
O=C(c1cccc(N2CCOCC2)n1)c1c[nH]c2ccccc12

>  <testedSystem>
OVCAR-4 ovarian

>  <classAssignment>
f

$$$$
>  <compound>
COc1ccc2c(c1)CC[C@@H]1[C@@H]2CC[C@]2(C)c3c(cc(C#N)c4c3sc3ccccc34)C[C@@H]12

>  <testedSystem>
OVCAR-4 ovarian

>  <classAssignment>
f

$$$$
>  <compound>
COCC(=O)Oc1cc(-c2ccc(C)cc2C)c(OC(=O)COC)c(-c2ccc(C)cc2C)c1

>  <testedSystem>
OVCAR-4 ovarian

>  <classAssignment>
f

$$$$
>  <compound>
COc1ccc(-c2nc3c(c(-c4ccc(Cl)cc4)nn3-c3ccccc3)c(-c3ccccc3)c2C#N)cc1

>  <testedSystem>
OVCAR-4 ovarian

>  <classAssignment>
f

$$$$
>  <compound>
CC(=O)Nc1sc2c(c1-c1nc3ccccc3s1)CNC2

>  <testedSystem>
OVCAR-4 ovarian

>  <classAssignment>
f

$$$$
>  <compound>
O=C(NCCN1CCOCC1)OCc1ccc2c(Cl)cc(Cl)c(O)c2n1

>  <testedSystem>
OVCAR-4 ovarian

>  <classAssignment>
f

$$$$
>  <compound>
Cc1ccccc1N1CCN(C(=S)c2ccccc2)CC1

>  <testedSystem>
OVCAR-4 ovarian

>  <classAssignment>
f

$$$$
>  <compound>
COc1ccc2c(c1)c(-c1nc(-c3ccc4ccccc4c3)cs1)cn2C

>  <testedSystem>
OVCAR-4 ovarian

>  <classAssignment>
f

$$$$
>  <compound>
N#CC1=C(N)Oc2c(sc3c(F)cccc23)C1c1ccc([N+](=O)[O-])cc1 (stereo not drawn)

>  <testedSystem>
OVCAR-4 ovarian

>  <classAssignment>
f

$$$$
>  <compound>
COc1cc(/C=C/C(=O)N2CCN(C(=O)c3cc(OC)c(OC)c(OC)c3)CC2)ccc1OCCCOc1cc2c(cc1OC)C(=O)N1CCC[C@H]1C=N2

>  <testedSystem>
OVCAR-4 ovarian

>  <classAssignment>
f

$$$$

----------
system: SF-539 CNS; assay: NCI-60 one-dose screen, 48 h; settings: 10 µM unless noted
This is part of a sample that, as a whole, favours compounds with a hit. Of some 83,000 tested, about 20% had one in any assay. The source made the active and inactive calls. The calls were made as follows: active = growth percent below 10; inactive = the rest.
Classes used: 1 for active, -1 for inactive

>  <smilesString>
CC(C)(C)c1ccc(C(=O)N/N=C/c2ccc(O)cc2O)cc1

>  <testedSystem>
SF-539 CNS

>  <classAssignment>
-1

$$$$
>  <smilesString>
O=C(NCCN1CCOCC1)OCc1ccc2c(Cl)cc(Cl)c(O)c2n1

>  <testedSystem>
SF-539 CNS

>  <classAssignment>
-1

$$$$
>  <smilesString>
CCN(CC)CCN1C(=O)c2c(c3c4ccccc4[nH]c3c3ccc4ccccc4c23)C1=O

>  <testedSystem>
SF-539 CNS

>  <classAssignment>
1

$$$$
>  <smilesString>
C=C(C)[C@@H]1CC[C@]2(C(=O)N3CCNCC3)CC[C@]3(C)[C@H](CC[C@@H]4[C@@](C)(CCC(=O)N5CCNCC5)[C@H](C(=C)C)CC[C@]43C)[C@@H]12

>  <testedSystem>
SF-539 CNS

>  <classAssignment>
-1

$$$$
>  <smilesString>
CC/C(=C(\c1ccc(Cl)cc1)c1ccc(OCCN2CCCCC2)cc1)c1ccc(O)cc1

>  <testedSystem>
SF-539 CNS

>  <classAssignment>
-1

$$$$
>  <smilesString>
CCOC(=O)/C=C1\S/C(=N\Nc2cc(=O)[nH]c3ccc(Br)cc23)N(c2ccccc2)C1=O

>  <testedSystem>
SF-539 CNS

>  <classAssignment>
-1

$$$$
>  <smilesString>
O=C(O)CCCCCCCCCCN1C(=O)/C(=C2/C(=O)N(CC(=O)O)c3ccc(Br)cc32)SC1=S

>  <testedSystem>
SF-539 CNS

>  <classAssignment>
-1

$$$$
>  <smilesString>
O=S(=O)(NCCNc1nccc(-c2c(-c3ccc(F)c(O)c3)nc3sccn23)n1)c1ccc(Cl)cc1

>  <testedSystem>
SF-539 CNS

>  <classAssignment>
-1

$$$$
>  <smilesString>
CS(=O)(=O)Nc1cc(-c2ccc3ncnc(Nc4ccc(F)c(Cl)c4)c3c2)ccc1Cl

>  <testedSystem>
SF-539 CNS

>  <classAssignment>
-1

$$$$
